Tested on: patient-derived GBM cell line 296
Experiment: Gliomasphere Cell Number Assay
Type: cell-based
Settings: cell line 296, Recurrent, MGMT status −; 50% cell numbers vs DMSO control, Day 2 to Day 9; read-out: IC50 Cell Survival
Protocol: Gliomasphere Cell Number Assay. Primary patient-derived GBM tumor samples were dissociated and plated under culture conditions that produce gliomaspheres (i.e. DMEM/F12 medium supplemented with B27, 20 ng/mL bFGF, 50 ng/mL EGF, penicillin/streptomycin, L-glutamine and 5 ug/mL heparin). […] On Day 9, the cells were fixed with PFA/methanol and the next day assessed for cell number, using for example, SYTO-9 fluorescent DNA dye. Plates were read 48 h later with a laser scanning imager.
Exercise: state measured IC50 for each of the compounds provided.
Return type: number; implicit unit nM.

Request: Quick one: IC50 for CCN1C(=O)CNc2ncc(-c3ccc(-c4nc[nH]n4)nc3C)nc21 ?
Result: 74.5

Request: Note, next up: CO[C@H]1CC[C@H](N2C(=O)CNc3ncc(-c4ccc(C(C)(C)O)nc4)nc32)CC1
Result: 257

Values were extracted from patent US10183019B2.
